For each entry below, report its glycan array binding signal (z-score) value.
- experimental_target: Fuc(a1-2)[GalNAc(a1-3)]Gal(b1-4)[Fuc(a1-3)]GlcNAc(b1-3)GalNAc
- assay_info: glycan array binding signal (z-score within array); higher = stronger binding
- protocol_conditions: glycan notation: IUPAC condensed, linker removed
Many of the other results were omitted from the sample, so the strongest signals are more common in it than they were.
// no unit, no text: just the number

[Q] Endpoint output: glycan array binding signal (z-score) of Gal 12 (Homo sapiens), Q96DT0 (protein) MSQPSGGRAPGTRIYSWSCPTVMSPGEKLDPIPDSFILQPPVFHPVVPYVTTIFGGLHAGKMVMLQGVVPLDAHRFQVDFQCGCSLCPRPDIAFHFNPRFHTTKPHVICNTLHGGRWQREARWPHLALRRGSSFLILFLFGNEEVKVSVNGQHFLHFRYRLPLSHVDTLGIFGDILVEAVGFLNINPFVEGSREYPAGHPFLLMSPRLEVPCSHALPQGLSPGQVIIVRGLVLQEPKHFTVSLRDQAAHAPVTLRASFADRTLAWISRWGQKKLISAPFLFYPQRFFEVLLLFQEGGLKLALNGQGLGATSMNQQALEQLRELRISGSVQLYCVHS . Value?
[A] 2.65

[Q] Endpoint output: glycan array binding signal (z-score) of ECL (Erythrina cristagalli), Q6YD91 (protein) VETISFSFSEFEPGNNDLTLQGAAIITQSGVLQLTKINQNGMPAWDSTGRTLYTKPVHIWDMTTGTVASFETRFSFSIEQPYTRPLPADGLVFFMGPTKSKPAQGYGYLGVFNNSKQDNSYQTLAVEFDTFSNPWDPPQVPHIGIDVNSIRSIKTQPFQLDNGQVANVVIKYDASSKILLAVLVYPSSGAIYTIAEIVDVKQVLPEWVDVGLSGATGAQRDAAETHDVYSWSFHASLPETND . Value?
[A] 0.775

[Q] Endpoint output: glycan array binding signal (z-score) of Sp8391B-bot-388-20-388 (Bacteroides ovatus) (protein) GCQNNDENEQHYDNKLFISASNFTKEILFKAGDTNVETGLSVAIAKPEEHDIKVTMSPAPELLSTYKLAYYDETAVLLSEEHYSMPETSTTIKSGSIVSPELPIEFINTGELDIKTTYVLPVTIKSVEGIGVLQSAKTYYYVFRGASLINVVCNISRNRAYPDFKNDSKFNNLTENTMEILFKANSFPNTLNTLMGIESNYLLRIGDATIPNNQLQVATSVNNCTSADLQLESGKWYHVAVAFNKGNVKVYINGVEKLSGSTGKSSVSLGAKHTNEEDGSRCFWVGYSYKDDRYFDGVVSEVRIWNRALTAEEIQATNHFYTIEPESEGLIAYWKFDEGSGTVAKDYSVSGYDLTIEKEPKWESVSLPQ . Value?
[A] -0.673

[Q] Endpoint output: glycan array binding signal (z-score) of YASPKCFRYPNGVLACT [Odorranalectin (Odorrana grahami), B3TFE9_RANGR] . Value?
[A] 2.29

[Q] Endpoint output: glycan array binding signal (z-score) of AT3G09350(27) (Arabidopsis thaliana), Q84J81 (protein) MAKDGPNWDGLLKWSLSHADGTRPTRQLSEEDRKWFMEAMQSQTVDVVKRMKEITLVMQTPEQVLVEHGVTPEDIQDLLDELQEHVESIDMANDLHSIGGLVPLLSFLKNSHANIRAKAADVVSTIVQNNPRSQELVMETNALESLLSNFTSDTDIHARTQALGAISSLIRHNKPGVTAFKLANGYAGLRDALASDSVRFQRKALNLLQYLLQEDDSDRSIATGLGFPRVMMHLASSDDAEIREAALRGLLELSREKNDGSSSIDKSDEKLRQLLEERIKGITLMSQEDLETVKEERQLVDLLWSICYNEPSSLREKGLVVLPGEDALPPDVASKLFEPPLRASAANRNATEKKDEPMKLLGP . Value?
[A] 5.85

[Q] Endpoint output: glycan array binding signal (z-score) of Nc3LysM (protein) QFTVPPDTTAEPNTIKTCTWWHVAGSGDSCTSIASTYGITSEQFARWDMETTDSPKNPSVATACKLTVGNSYCIENNFGQDDPPTPSISSSTLIGTATTSTTASTTTGNGISTPTPIQEGMETATTTTSSGNGITTPTPTQAGMETVGNCDRFHLVKSGDQCGTIASTYGITLANFYSWNPAVGTSCQSLWLDTYVCVRTIGFVPPKTTTTTTKKPTSTTSAGGVATPTPTQPGMETVSGCKKFHKGRGNVSTVASGDQCGTIATRYGISLANFYSWNPAVGSSCQTLWLDYYVCVGR . Value?
[A] -0.076

[Q] Endpoint output: glycan array binding signal (z-score) of PpFlo1 (Pichia pastoris) (protein) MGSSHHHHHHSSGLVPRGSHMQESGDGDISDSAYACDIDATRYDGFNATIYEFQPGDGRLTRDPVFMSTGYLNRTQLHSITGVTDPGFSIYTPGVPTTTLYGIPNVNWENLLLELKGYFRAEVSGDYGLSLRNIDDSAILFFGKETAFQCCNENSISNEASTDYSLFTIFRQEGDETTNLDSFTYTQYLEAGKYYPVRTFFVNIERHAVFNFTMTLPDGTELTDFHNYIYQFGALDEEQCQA . Value?
[A] 7.08

[Q] Endpoint output: glycan array binding signal (z-score) of CVN (Nostoc ellipsosporum), P81180 (protein) LGKFSQTCYNSAIQGSVLTSTCERTNGGYNTSSIDLNSVIENVDGSLKWQPSNFIETCRNTQLAGSSELAAECKTRAQQFVSTKINLDDHIANIDGTLKYE . Value?
[A] 0.522

[Q] Endpoint output: glycan array binding signal (z-score) of MUB70 (Lactobacillus reuteri) (protein) CVHVQYIDGETDQMLRQDDLDGYTDETIPYSTAEGIKKFEGDGYELFKDNFPAGEKFDNDDTNDQFYTVIF . Value?
[A] -0.274

[Q] Endpoint output: glycan array binding signal (z-score) of Drgal1 (Danio rerio) (protein) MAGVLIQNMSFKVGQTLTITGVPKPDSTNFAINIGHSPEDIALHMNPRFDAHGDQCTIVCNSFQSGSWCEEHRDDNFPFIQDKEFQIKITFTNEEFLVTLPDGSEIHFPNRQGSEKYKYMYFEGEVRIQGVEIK . Value?
[A] 2.22
